- Tested on: THP-1 cells
- RUN DESCRIPTION: survival of monocytes with LPS
- Type: cell-based, human
- MEASUREMENT SETUP: 1 uM
ENDPOINT: Cell survival (%)

INSERT INTO results (molecule, measured_number) VALUES
  ('CCOC(=O)c1ccc(Nc2nc3nonc3nc2N2CCC(C(=O)c3ccccc3)CC2)cc1 [Compound 17]', 98),
  ('CC(C)NC(=O)c1cccc(Nc2nc3nonc3nc2N2CCC(Cc3ccccc3)CC2)c1 [Compound 20]', 96),
  ('Cc1ccc(SC2CCN(c3nc4nonc4nc3-c3cccc(C(=O)OC(C)C)c3)CC2)cc1 [Compound 22]', 94),
  ('CCOC(=O)c1ccc(Nc2nc3nonc3nc2N2CCC(Oc3ccc(Cl)cc3)CC2)cc1 [Compound 25]', 61),
  ('O=C(O)c1ccc(Nc2nc3nonc3nc2N2CCC(Cc3ccccc3)CC2)cc1 [Compound 29]', 103),
  ('CCOC(=O)c1ccc(Nc2nc3nonc3nc2N2CCC(Oc3ccncc3)CC2)cc1 [Compound 33]', 99),
  ('Cc1cc(C(=O)NCC(C)C)ccc1Nc1nc2nonc2nc1N1CCC(Cc2ccccc2)CC1 [Compound 21]', 95),
  ('CCOC(=O)c1ccc(Nc2nc3nonc3nc2Nc2ccc(C(=O)c3ccccc3)cc2)cc1 [Compound 26]', 87),
  ('CCCNC(=O)c1ccc(Nc2nc3nonc3nc2N2CCC(Sc3ccc(C)cc3)CC2)cc1 [Compound 23]', 95),
  ('CCOC(=O)c1ccc(NNc2nc3nonc3nc2N2CCC(Cc3ccccc3)CC2)cc1 [Compound 24]', 98),
  ('O=C([O][Na+])c1ccc(Nc2nc3nonc3nc2N2CCC(Cc3ccccc3)CC2)cc1 [Compound 30]', 97);

###

- Test system: THP-1 cells
- RUN DESCRIPTION: survival of monocytes with LPS
- Assay type: cell-based, human
- MEASUREMENT SETUP: 0.1 uM
// reported Cell survival per item
ENDPOINT: Cell survival (%)

INSERT INTO assay_data (item_smiles, target_desc, endpoint, uom, measured_number) VALUES
  ('CCOC(=O)c1ccc(Nc2nc3nonc3nc2N2CCC(C(=O)c3ccccc3)CC2)cc1', 'THP-1 cells', 'Cell survival', '%', 99),
  ('CCOC(=O)c1ccc(NNc2nc3nonc3nc2N2CCC(Cc3ccccc3)CC2)cc1', 'THP-1 cells', 'Cell survival', '%', 104),
  ('CCCNC(=O)c1ccc(Nc2nc3nonc3nc2N2CCC(Cc3ccccc3)CC2)cc1', 'THP-1 cells', 'Cell survival', '%', 103);

Hey, just so you know, these numbers are from patent US20160194336A1.
